Tested on: CCRIS mutagenicity, Ames/micronucleus/aberration tests
Assay: CCRIS mutagenicity studies
Settings: Test System: AMES SALMONELLA TYPHIMURIUM; Strain/Indicator: TA100; Metabolic Activation: RAT, LIVER, S-9, AROCLOR 1254; Method: STANDARD PLATE
Activity calls are given as the source filed them. How the calls were made is not given here.
measure: mutagenic call

Some molecules with known mutagenic call results, for comparison:
# molecule, system_under_test, observed_value
rows = [
    ("CC12CCC(=O)NC1=CCC1C2CCC2(C)C(OC(=O)CCCc3ccc(N(CCCl)CCCl)cc3)CCC12 (centres undefined)", "CCRIS mutagenicity, Ames/micronucleus/aberration tests", "active; positive"),
    ("O=C1c2ccccc2C(=O)c2c(O)c(O)cc(O)c21", "CCRIS mutagenicity, Ames/micronucleus/aberration tests", "inactive; negative"),
    ("O=P([O-])([O-])OC(CCO)CCO.O=P([O-])([O-])OCC(O)CO.[Mn+2].[Mn+2]", "CCRIS mutagenicity, Ames/micronucleus/aberration tests", "inactive; negative"),
    ("CCCC[C@@H](C)[C@@H](OC(=O)C[C@@H](CC(=O)O)C(=O)O)[C@H](C[C@@H](C)CCCCCC[C@@H](O)C[C@H](O)[C@H](C)N)OC(=O)C[C@@H](CC(=O)O)C(=O)O", "CCRIS mutagenicity, Ames/micronucleus/aberration tests", "inactive; negative"),
]

Which value of mutagenic call has been reported for O=C(O)CC[C@H](NC(=O)COc1cc(Cl)c(Cl)cc1Cl)C(=O)O in the records?
inactive; negative

Which value of mutagenic call has been reported for Cc1cc(Cl)ccc1OC(C)C(=O)O (centres undefined) in the records?
inactive; negative

Which value of mutagenic call has been reported for CCC(C)(C)OC in the records?
inactive; negative

---

Test system: CCRIS mutagenicity, Ames/micronucleus/aberration tests
Test: CCRIS mutagenicity studies
Details: Test System: AMES SALMONELLA TYPHIMURIUM; Strain/Indicator: TA1535; Metabolic Activation: NONE; Method: STANDARD PLATE
The source made the active and inactive calls. No rule for the calls is given here.
Give one outcome, nothing more. List: Yes for active, No for inactive

Tell me the recorded outcome of this test for COC(=O)Nc1nc2ccc(OS(=O)(=O)c3ccc(F)cc3)cc2[nH]1 .
No

Tell me the recorded outcome of this test for COc1ccc(N)c(OC)c1 .
No

Tell me the recorded outcome of this test for C=C(C)C(=O)OCCOC(=O)C(=C)C .
No

Tell me the recorded outcome of this test for O=[N+]([O-])c1c(-c2ccc(Cl)cc2)nc2n1CCS2 .
No

Tell me the recorded outcome of this test for O=P([O-])([O-])OC(CCO)CCO.O=P([O-])([O-])OCC(O)CO.[Mn+2].[Mn+2] .
No

Tell me the recorded outcome of this test for CNC(=O)Oc1ccccc1OC(C)C .
Yes

Tell me the recorded outcome of this test for COC1=CC=CC=CC1 .
No

Tell me the recorded outcome of this test for O=C1c2ccccc2C(=O)c2ccccc21 .
No

Tell me the recorded outcome of this test for NNC(=O)c1ccncc1 .
Yes

Tell me the recorded outcome of this test for O=S(=O)(O)c1cccc2cccnc12 .
No

Tell me the recorded outcome of this test for CNc1ccc(N(CCO)CCO)cc1[N+](=O)[O-] .
No

Tell me the recorded outcome of this test for CCN(N=O)c1ccccc1 .
No

Tell me the recorded outcome of this test for Nc1cccc([N+](=O)[O-])c1O .
No

Tell me the recorded outcome of this test for O=NN1CCC[C@H]1c1cccnc1 .
No

Tell me the recorded outcome of this test for COP(=O)(OC)C(OC(=O)CCl)C(Cl)(Cl)Cl (stereo not drawn) .
No

Tell me the recorded outcome of this test for COc1ccc(CN(C)N=O)cc1 .
No

Tell me the recorded outcome of this test for Cc1cc(N)c([N+](=O)[O-])c(C)c1N .
No

Tell me the recorded outcome of this test for CCN(CC)c1ccc(C(=C2C=CC(=[N+](CC)CC)C=C2)c2ccc(N(CC)CC)cc2)cc1 .
No

Tell me the recorded outcome of this test for O=C(Cl)c1ccc([N+](=O)[O-])cc1 .
No

Tell me the recorded outcome of this test for O=C(CCCN1CCN(c2ccccn2)CC1)c1ccc(F)cc1 .
No

Tell me the recorded outcome of this test for Cc1ccc(C(O)(P(=O)(O)O)P(=O)(O)O)cc1N(CCCl)CCCl .
No

Tell me the recorded outcome of this test for C[C@H]1CCCC(=O)CCC/C=C/c2cc(O)cc(O)c2C(=O)O1 .
No

Tell me the recorded outcome of this test for CCCCCNc1snc2ccccc12 .
No

Tell me the recorded outcome of this test for Cc1cc(N(CCO)CCO)ccc1N=Nc1ccc(N)cc1 .
No

Tell me the recorded outcome of this test for CCCCC=O .
No

Tell me the recorded outcome of this test for CCOc1ccccc1OCC1CNCCO1 (stereo not drawn) .
No

Tell me the recorded outcome of this test for Cc1cn2c([N+](=O)[O-])c(-c3ccc([N+](=O)[O-])cc3)nc2s1 .
Yes

Tell me the recorded outcome of this test for C/C=C1\CC2C=CC1C2 (stereo not drawn) .
No

Ref: PubChem BioAssay AID1259407
